molecular target: T1, human CD33 (human, UniProt P20138 18-364); assay: flow cytometry, human primary dendritic cells;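 note: binding of anti-CD33 antibodies (10 ug/ml, 1 h on ice) to human primary dendritic cells, detected with a PE-labelled secondary antibody, reported as flow cytometry MFI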
T1 construct: CD33 on human primary dendritic cells, macrophages, monocytes and T cells and on CHO cells expressing recombinant human CD33; also called Siglec-3; hCD33
T1 sequence (P20138 18-364): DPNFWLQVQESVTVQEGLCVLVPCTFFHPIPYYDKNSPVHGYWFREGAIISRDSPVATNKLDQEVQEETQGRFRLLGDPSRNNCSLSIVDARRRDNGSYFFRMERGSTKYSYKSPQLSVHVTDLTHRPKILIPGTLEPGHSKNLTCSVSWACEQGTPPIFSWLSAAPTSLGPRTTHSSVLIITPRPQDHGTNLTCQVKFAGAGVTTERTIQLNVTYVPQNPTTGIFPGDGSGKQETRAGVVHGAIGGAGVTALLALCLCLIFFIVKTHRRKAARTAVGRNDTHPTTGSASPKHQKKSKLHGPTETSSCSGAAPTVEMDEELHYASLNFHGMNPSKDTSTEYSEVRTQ

# binder, DC MFI
data = [
    ("C-27 (antibody, V domains shown, human IgG1) VH: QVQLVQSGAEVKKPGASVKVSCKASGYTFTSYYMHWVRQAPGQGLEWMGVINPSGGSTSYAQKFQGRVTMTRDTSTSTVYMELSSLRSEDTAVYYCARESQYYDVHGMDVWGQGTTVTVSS VL: DIQMTQSPSSLSASVGDRVTITCRASQSISSYLNWYQQKPGKAPKLLIYAASSLQSGVPSRFSGSGSGTDFTLTISSLQPEDFATYYCQQHYDIPLTFGGGTKVEIK", 1300),
    ("C-64 (antibody, V domains shown, human IgG1) VH: QVQLVQSGAEVKKPGSSVKVSCKASGGTFSSLAISWVRQAPGQGLEWMGGIIPIFGTANYAQKFQGRVTITADESTSTAYMELSSLRSEDTAVYYCARGTFYSDELFDYWGQGTLVTVSS VL: DIQMTQSPSSVSASVGDRVTITCRASQGISSWLAWYQQKPGKAPKLLIYAASSLQSGVPSRFSGSGSGTDFTLTISSLQPEDFATYYCQQENSYPLTFGGGTKVEIK", 1300),
]
